Known viability at 50 µM of a selection of molecules
# Tested on: SH-SY5Y
# method-notes: Neuroprotective activity against H2O2-induced neuronal cell death in human SH-SY5Y cells assessed as cell viability at 50 uM pretreated for 12 hrs followed by H2O2 addition measured after 3 hrs by MTT assay relative to control
# Type: functional
# measurement-context: read-out: Activity
The reply should consist of the numeric value with the unit placed after it.

QUERY: # get_value(readout= viability at 50 µM, system= SH-SY5Y) for `C[C@H]1O[C@@H](O[C@H]2CC[C@@]3(C)[C@@H](CC[C@]4(C)[C@@H]3[C@H](O)C=C3[C@@H]5CC(C)(C)CC[C@]5(CO)[C@@H](O)C[C@]34C)[C@]2(C)CO)[C@H](O)[C@@H](O)[C@H]1O`
RESULT: 11.4%

The measured values listed here are drawn from ChEMBL document CHEMBL3792274.
